testedTarget: T1, YSC84 SH3 domain (Saccharomyces cerevisiae)
T1 chain: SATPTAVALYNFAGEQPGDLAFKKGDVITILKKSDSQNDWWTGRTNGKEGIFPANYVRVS
assayText: SPR
conditionDetails: modification not given
Entries and their Kd

NQPDLPPRKIMIP [YBR239C peptide …] : 16 µM
DIKTRSVPKIPSIE [DEM1 peptide …] : > 100 µM
RPLPQLPNRNNRPV [LAS17 peptide …] : 9.6 µM

Next binder, Kd to be filled in.
Qu. Can you look up the measured Kd of RAVPILPPRNNVEP [YBR108W peptide …] for me?
Ans. 13 µM
